measured.metric: pKi
# pKi is unitless: minus log10 of the molar concentration; print number only

The recorded pKi with Prothrombin (Homo sapiens, UniProt P00734) for `CCOc1cc(OCC)c(F)c([C@@H](Nc2ccc(C(=N)N)c(O)c2)C(=O)NS(=O)(=O)c2cccc(N)c2)c1` was 5.44

====

- test.system: Plasma kallikrein (Homo sapiens)
- Sequence (P03952 20-390 limits assumed): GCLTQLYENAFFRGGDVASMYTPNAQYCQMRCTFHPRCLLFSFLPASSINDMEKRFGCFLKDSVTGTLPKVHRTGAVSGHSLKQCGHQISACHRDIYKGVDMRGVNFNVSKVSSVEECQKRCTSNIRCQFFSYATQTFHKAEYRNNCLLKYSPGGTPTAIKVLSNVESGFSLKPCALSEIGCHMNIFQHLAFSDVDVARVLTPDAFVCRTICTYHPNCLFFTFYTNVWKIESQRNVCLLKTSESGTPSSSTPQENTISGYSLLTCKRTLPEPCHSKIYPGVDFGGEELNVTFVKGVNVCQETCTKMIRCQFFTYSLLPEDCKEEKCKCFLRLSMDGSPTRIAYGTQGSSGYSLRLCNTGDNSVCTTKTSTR
- Sequence (P03952 391-638 limits assumed): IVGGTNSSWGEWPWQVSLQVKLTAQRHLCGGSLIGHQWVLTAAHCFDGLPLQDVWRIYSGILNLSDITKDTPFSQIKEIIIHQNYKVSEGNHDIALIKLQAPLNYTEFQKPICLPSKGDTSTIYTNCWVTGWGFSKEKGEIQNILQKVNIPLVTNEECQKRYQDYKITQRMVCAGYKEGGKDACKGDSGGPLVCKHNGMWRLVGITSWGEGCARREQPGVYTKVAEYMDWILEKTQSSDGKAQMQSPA
- assay.name: Serine Protease Inhibition Assay
- condition.context: pH 7.8; 22 °C
measured.metric: Ki (nM)
Express the result in nM but write the number alone.

GET /value?item= `CCOc1cc(OCC)c(F)c([C@@H](Nc2ccc(C(=N)N)c(O)c2)C(=O)NS(=O)(=O)c2cccc(N)c2)c1` &field=Ki returns 114
